- target system: RAF proto-oncogene serine/threonine-protein kinase (Homo sapiens, UniProt P04049)
- Sequence (P04049 whole entry): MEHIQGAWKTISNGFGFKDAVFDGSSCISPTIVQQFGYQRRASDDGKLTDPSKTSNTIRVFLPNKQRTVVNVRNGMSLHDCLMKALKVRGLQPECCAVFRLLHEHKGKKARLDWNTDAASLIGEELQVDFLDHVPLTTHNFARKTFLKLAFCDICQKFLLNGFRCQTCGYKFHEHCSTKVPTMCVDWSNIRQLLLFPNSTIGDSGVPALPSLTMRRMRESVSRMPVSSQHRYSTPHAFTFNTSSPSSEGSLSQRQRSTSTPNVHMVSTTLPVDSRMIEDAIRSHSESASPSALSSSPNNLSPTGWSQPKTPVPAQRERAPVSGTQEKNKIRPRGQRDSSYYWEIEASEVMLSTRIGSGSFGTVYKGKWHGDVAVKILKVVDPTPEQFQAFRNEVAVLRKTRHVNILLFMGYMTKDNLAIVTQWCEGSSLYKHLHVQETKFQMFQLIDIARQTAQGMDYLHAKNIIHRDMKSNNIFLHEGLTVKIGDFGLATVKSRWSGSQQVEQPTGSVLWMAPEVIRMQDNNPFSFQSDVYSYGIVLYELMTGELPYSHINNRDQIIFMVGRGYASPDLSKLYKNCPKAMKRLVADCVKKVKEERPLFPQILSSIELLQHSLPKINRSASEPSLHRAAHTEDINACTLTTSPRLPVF
quantity measured: IC50 (nM)
Form entry: value (nM) — number only.

QUERY: Quick check: IC50 of COc1cc2ncnc(Oc3cccc(NC(=O)Nc4cc(C(C)(C)C(F)(F)F)on4)c3)c2cc1OC ?
RESULT: 146

###

- test details: Inhibition of human recombinant RET Y719F using Biotin-EGPWLEEEEEAYGWMDF as substrate by TR-FRET assay
quantity measured: pIC50
Value format note: pIC50 is -log10 of concentration (mol/L); just state the number.

QUERY: Quick check: pIC50 of CCc1cc2c(cc1N1CCC(N3CCOCC3)CC1)C(C)(C)c1[nH]c3cc(C#N)ccc3c1C2=O [ALECTINIB] ?
RESULT: 7.85

###

- test details: Inhibition of recombinant RET V804M (unknown origin) incubated for 120 mins by Perkin Elmer electrophoretic mobility shift platform method
- Set-up: species or system Homo sapiens
quantity measured: IC50 (pM)
Give the value, in units of pM, as a plain number.

QUERY: Which IC50 is reported for this compound? COc1ccc(CN2C3CC2CN(c2ccc(-c4cc(OCC(C)(C)O)cn5ncc(C#N)c45)cn2)C3)cn1 [SELPERCATINIB]
RESULT: 800

###

- test details: Inhibition of C-KIT (unknown origin) by kinomescan assay
- Parameters: species or system Homo sapiens
quantity measured: IC50 (nM)
Please state the figure in nM; there is no need to write the unit.

QUERY: // query IC50 value for entry COc1cc2ncnc(Oc3cccc(NC(=O)Nc4cc(C(C)(C)C(F)(F)F)on4)c3)c2cc1OC
RESULT: 1

###

- test details: Cytotoxicity against HUVEC expressing FLT-1 incubated for 72 hrs by celltitre blue assay
- Format: toxicity, cell-based
- measurement parameters: human
quantity measured: GI50 at 72 h

QUERY: Which GI50 at 72 h reading was recorded for the molecule COc1cc2ncnc(Oc3cccc(NC(=O)Nc4cc(C(C)(C)C(F)(F)F)on4)c3)c2cc1OC ?
RESULT: ≥ 1 µM

###

- target system: Tyrosine-protein kinase ABL1 (Homo sapiens)
- Sequence (P00519 whole entry): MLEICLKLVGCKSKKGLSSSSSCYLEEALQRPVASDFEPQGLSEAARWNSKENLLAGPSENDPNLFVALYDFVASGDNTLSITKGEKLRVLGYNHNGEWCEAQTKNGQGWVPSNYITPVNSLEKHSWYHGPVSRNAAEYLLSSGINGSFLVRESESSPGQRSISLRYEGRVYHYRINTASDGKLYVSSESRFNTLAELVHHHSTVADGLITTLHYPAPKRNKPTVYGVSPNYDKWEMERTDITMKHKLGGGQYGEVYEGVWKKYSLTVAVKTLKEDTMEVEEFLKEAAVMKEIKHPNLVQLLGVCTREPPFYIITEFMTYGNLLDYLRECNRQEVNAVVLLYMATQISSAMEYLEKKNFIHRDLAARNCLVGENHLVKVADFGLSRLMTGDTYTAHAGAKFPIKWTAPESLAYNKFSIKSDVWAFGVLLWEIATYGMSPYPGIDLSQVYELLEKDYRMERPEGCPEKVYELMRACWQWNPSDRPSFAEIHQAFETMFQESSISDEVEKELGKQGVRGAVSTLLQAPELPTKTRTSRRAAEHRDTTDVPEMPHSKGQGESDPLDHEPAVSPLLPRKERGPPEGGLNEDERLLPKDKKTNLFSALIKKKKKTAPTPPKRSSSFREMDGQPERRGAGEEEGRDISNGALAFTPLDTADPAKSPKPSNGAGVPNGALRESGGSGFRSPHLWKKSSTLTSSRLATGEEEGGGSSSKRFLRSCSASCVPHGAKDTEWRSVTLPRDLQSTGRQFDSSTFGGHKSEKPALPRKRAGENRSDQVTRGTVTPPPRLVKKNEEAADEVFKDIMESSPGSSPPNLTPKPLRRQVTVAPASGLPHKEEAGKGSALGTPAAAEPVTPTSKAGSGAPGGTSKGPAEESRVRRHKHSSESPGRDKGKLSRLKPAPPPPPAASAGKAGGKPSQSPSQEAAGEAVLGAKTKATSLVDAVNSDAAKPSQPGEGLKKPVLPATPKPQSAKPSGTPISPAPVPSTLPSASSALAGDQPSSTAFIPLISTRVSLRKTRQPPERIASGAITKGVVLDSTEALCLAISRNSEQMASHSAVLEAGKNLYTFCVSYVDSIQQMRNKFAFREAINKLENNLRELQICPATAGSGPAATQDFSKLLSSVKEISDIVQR
quantity measured: pIC50
Schema: pIC50 number; meaning minus log10 of the concentration expressed in molar units.

QUERY: Which value of pIC50 has been reported for COc1cc2ncnc(Oc3cccc(NC(=O)Nc4cc(C(C)(C)C(F)(F)F)on4)c3)c2cc1OC in the records?
RESULT: 8.22

###

- test details: Cytotoxicity against HUVEC expressing VEGFR2 incubated for 72 hrs by celltitre blue assay
- Format: toxicity, cell-based
- measurement parameters: human
quantity measured: GI50 at 72 h

QUERY: Entry COc1cc2ncnc(Oc3cccc(NC(=O)Nc4cc(C(C)(C)C(F)(F)F)on4)c3)c2cc1OC [CEP-32496] has what GI50 at 72 h?
RESULT: ≥ 700 nM

###

- target system: Vascular endothelial growth factor receptor 2 (Homo sapiens, UniProt P35968)
- Sequence (P35968 whole entry): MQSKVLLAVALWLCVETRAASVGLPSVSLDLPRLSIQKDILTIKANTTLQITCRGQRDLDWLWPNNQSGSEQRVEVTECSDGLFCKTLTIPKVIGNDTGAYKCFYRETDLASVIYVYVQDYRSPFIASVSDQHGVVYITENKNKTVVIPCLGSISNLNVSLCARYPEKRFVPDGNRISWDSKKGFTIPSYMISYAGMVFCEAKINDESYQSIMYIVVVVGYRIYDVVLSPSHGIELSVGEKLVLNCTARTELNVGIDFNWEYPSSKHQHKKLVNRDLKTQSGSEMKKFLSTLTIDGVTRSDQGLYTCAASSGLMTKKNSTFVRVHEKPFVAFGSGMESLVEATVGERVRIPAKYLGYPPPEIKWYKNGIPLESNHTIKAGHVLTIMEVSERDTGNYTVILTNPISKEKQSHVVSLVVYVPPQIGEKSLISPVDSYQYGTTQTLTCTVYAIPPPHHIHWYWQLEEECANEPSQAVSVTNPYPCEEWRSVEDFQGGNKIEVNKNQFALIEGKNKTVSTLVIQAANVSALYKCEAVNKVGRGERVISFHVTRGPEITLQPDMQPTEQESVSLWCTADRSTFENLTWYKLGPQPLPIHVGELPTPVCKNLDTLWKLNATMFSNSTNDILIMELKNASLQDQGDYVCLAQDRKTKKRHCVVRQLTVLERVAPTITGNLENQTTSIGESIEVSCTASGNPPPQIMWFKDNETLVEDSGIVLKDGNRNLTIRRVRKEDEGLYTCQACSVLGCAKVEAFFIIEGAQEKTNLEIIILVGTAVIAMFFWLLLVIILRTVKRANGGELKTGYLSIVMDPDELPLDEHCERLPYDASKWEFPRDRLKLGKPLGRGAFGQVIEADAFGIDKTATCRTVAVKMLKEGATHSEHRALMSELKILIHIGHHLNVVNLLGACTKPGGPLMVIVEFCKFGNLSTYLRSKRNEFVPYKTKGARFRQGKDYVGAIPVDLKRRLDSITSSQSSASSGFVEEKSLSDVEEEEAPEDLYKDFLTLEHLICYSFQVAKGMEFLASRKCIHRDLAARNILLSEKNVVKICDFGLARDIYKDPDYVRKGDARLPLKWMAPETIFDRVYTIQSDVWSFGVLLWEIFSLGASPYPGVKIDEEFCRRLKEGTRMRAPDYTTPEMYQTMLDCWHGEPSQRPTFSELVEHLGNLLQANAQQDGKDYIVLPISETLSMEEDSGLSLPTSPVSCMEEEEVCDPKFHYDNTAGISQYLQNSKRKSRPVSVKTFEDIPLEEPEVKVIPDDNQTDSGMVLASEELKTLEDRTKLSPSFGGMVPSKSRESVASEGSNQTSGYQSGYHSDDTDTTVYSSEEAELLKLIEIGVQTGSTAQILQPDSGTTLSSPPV
- test details: Inhibition of recombinant VEGFR2 (unknown origin) incubated for 120 mins by Perkin Elmer electrophoretic mobility shift platform method
quantity measured: pIC50
Note: pIC50 values are expressed as the negative base-10 logarithm of concentration in M.

QUERY: What value of measured pIC50 is listed for COC1(C(=O)N[C@@H](C)c2ccc(-n3cc(F)cn3)nc2)CCC(c2nc(C)cc(Nc3cc(C)[nH]n3)n2)CC1 (stereo partly specified) ?
RESULT: 7.46
